Listing of recorded TGI by entry.
- System: 786-0 renal
- assay-method-text: NCI tumour cell line growth inhibition, 48 h
Please reply with the bare figure in µM and do not write the unit itself.

COc1cccc(C2C3=C(COC3=O)N(CCO)c3cc4c(cc32)CCC4)c1 (centres undefined) : 10.8

// next item, TGI requested
Ask: Look up TGI for this compound: O=C(/C=C/c1cccnc1)/C=C/c1cccnc1
Reply: 6.03

----------
- Test system: MDA-MB-435
- assay-method-text: NCI tumour cell line growth inhibition, 48 h; in the data active means GI50 below about 0.43 µM; inactive means the rest
# valid calls are Y for active, N for inactive; nothing else

CN(C)c1ccc(N=C(C#N)c2nc(N)nc(N3CCOCC3)n2)cc1 : N
OCCC#Cc1ccccc1C#Cc1ccccc1 : N
COc1cc2c(cc1OCCCN1CCN(CCCOc3cc4c(cc3OC)C(=O)C3CCC[C@H]3C=N4)CC1)N=C[C@@H]1CCCC1C2=O (stereo partly drawn) : N

Ask: How did this test come out for Cn1cc(-c2ccc3c(c2)ncn3-c2ccc(CC(=O)Nc3cc(C(C)(C)C)on3)cc2)cn1 ?
Reply: N

Ask: Request: Oc1ccc(-c2nc(-c3ccc(F)cc3)c(-c3ccncc3)[nH]2)cc1
Reply: N

Ask: Nc1nccc(C#Cc2cncnc2Nc2ccc(OCc3cccc(F)c3)c(Cl)c2)n1 ?
Reply: N

Ask: Try this compound too: COc1cccc(C2C3=C(COC3=O)N(CCO)c3cc4c(cc32)CCC4)c1 (stereo not drawn)
Reply: Y

Ask: What about O=C(Nc1ccc(-n2cc(-c3ccncc3)c(-c3ccc(O)c(Cl)c3)n2)cc1)c1ccc(Cl)c(Cl)c1 ?
Reply: N

----------
- Tested on: SN12C renal
- assay-method-text: NCI tumour cell line growth inhibition, 48 h; in the data active = GI50 below about 0.43 µM; inactive = the rest
Please state which outcome applies, choosing from yes = active, no = inactive

Example entries begin here.
COc1cc2c(c(Br)c1N)-c1cc(Br)c(N)cc1C2=O : no
COc1cc2c(cc1OCCCN1CCN(CCCOc3cc4c(cc3OC)C(=O)C3CCC[C@H]3C=N4)CC1)N=C[C@@H]1CCCC1C2=O (stereo partly drawn) : no
O=C(/C=C/c1cccnc1)/C=C/c1cccnc1 : no
C/C(=N\NC(=S)Nc1ccccc1)c1ccccn1 : yes
c1ccc(COc2ccc(Nc3ncnc4ccc(-c5ccco5)cc34)cc2)cc1 : no
C[CH2][Sn]([CH2]C)([O]C(=O)c1cc(OC)c(OC)c(OC)c1)[O][Sn]([CH2]C)([CH2]C)[O]C(=O)c1cc(OC)c(OC)c(OC)c1 : no
O=C(O)Cc1ccccc1 : no
Cn1cc(-c2csc(-c3cn(C)c4ncccc34)n2)c2ccccc21 : no

Now look at this one.
Ask: Assay outcome for C=C1CCC2C3(C)COC(c4cccc(Cl)c4)OC3CCC2(C)C1/C=C/C1=CCOC1=O (stereo not drawn) : what was it?
Reply: no

----------
- System: A549 NSCLC
- assay-method-text: NCI tumour cell line growth inhibition, 48 h
measure-name: TGI

Reference set (2 entries):
CN(N=O)C(N)=NC(=O)c1ccccc1 : > 100 µM
O=Cc1cc(O)ccc1Br : > 100 µM

Ask: // query TGI value for entry CC1(C)O[C@@H]([C@@H](O)[C@H](O)C2SCCCS2)[C@@H](CO)O1
Reply: > 100 µM

Ask: Same for CC(=O)OCC1OC(n2cnc3c(I)nc(I)nc32)C(OC(C)=O)C1OC(C)=O (centres undefined)
Reply: 32.7 µM

Ask: Can you handle C[CH2][Sn]([CH2]C)([O]C(=O)c1cc(OC)c(OC)c(OC)c1)[O][Sn]([CH2]C)([CH2]C)[O]C(=O)c1cc(OC)c(OC)c(OC)c1 next?
Reply: > 100 µM

Ask: Then CCN(CC)CCSc1nc2c([N+](=O)[O-])cccc2[nH]1 ?
Reply: > 100 µM

Ask: Try this compound too: C=C1CCC2C3(C)COC(c4cccc(Cl)c4)OC3CCC2(C)C1/C=C/C1=CCOC1=O (centres undefined)
Reply: > 100 µM

Ask: Also, Cc1cc(N(CCC#N)CCC#N)ccc1N=Nc1ccc([N+](=O)[O-])cc1 please.
Reply: > 100 µM

Ask: Then CC/C(=C(/CC)c1ccc(OP(=O)([O-])[O-])cc1)c1ccc(OP(=O)([O-])[O-])cc1.N.N.N.N.[Pt+4].[Pt+4] ?
Reply: 8.43 µM

Ask: Queued: COc1cc(/C=C2\N=C(c3ccccc3)N(/N=C/c3cc4cc(C)ccc4nc3Cl)C2=O)ccc1O
Reply: > 100 µM

Ask: # iterate: O=C(/C=C/c1cccnc1)/C=C/c1cccnc1
Reply: 6.23 µM

Ask: Consider next the compound O=C(CN1c2ccccc2Sc2ccccc21)n1cnc2ccccc21 in the same way.
Reply: > 100 µM

Ask: Field entry: CC1(C)CCC(CN2CCN(c3ccc(C(=O)NS(=O)(=O)c4ccc(NCC5CCOCC5)c([N+](=O)[O-])c4)c(Oc4cnc5[nH]ccc5c4)c3)CC2)=C(c2ccc(Cl)cc2)C1
Reply: 11.8 µM

Ask: And what about the compound COC(=O)c1c(OC(C)=O)ccc2c1c1c(n2Cc2ccccc2)C(=O)c2ccccc2C1=O ?
Reply: 83.9 µM

Ask: And the next one, CCCNc1c(Cl)cc(Cl)c2[nH]c3ccccc3c(=O)c12 ?
Reply: > 100 µM

Ask: For CCCN=C1S/C(=C/c2ccc(OC)c(OC)c2)C(=O)N1c1ccccc1 then?
Reply: > 100 µM

Ask: // repeat for C[N+](C)(C)C(Cc1c[nH]c(=S)[nH]1)C(=O)O (centres undefined) and report
Reply: > 100 µM

Ask: Repeat for the following compound: CCC/C(Cl)=N/OC(=O)Nc1cccc(F)c1
Reply: 41.6 µM

Ask: Input CC1(C)CC[C@]2(C(=O)O)CCC3(C)C(=CCC4[C@@]5(C)CC[C@H](OC6OCC(O)C(O)C6OC6OC(CO)C(O)C(O)C6O)C(C)(C)C5CC[C@]43C)C2C1 (some centres undefined)
Reply: 3.53 µM

----------
- System: MDA-MB-231 breast
- assay-method-text: NCI tumour cell line growth inhibition, 48 h; in the data active means GI50 below about 0.43 µM; inactive means the rest
Parameter call: string, one of Yes (active), No (inactive)

These recorded examples may help you get a feel for the data.
O=C(O)Cc1ccccc1 : No
O=[N+]([O-])c1ccc([I+]c2ccccc2)cc1 : No
COc1cccc(C2C3=C(COC3=O)N(CCO)c3cc4c(cc32)CCC4)c1 (centres undefined) : Yes
Cc1nc(N=C(N)N)nc2ccc3ccccc3c12 : No
OCCC#Cc1ccccc1C#Cc1ccccc1 : No

Ask: I would be grateful if you could indicate the recorded call for O=C1/C(=C\c2ccccc2)CN(C(=O)c2ccccc2F)C/C1=C\c1ccccc1 .
Reply: No

Ask: And the next one, c1ccc(CNc2nc(Nc3ccc(-c4nc5ccccc5[nH]4)cc3)c3cn[nH]c3n2)cc1 ?
Reply: No

Ask: Now give it for S=c1nc(/C=C/c2ccc(Cl)c(Cl)c2)[nH][nH]1 too.
Reply: No

Ask: What do you have for Nc1nccc(C#Cc2cncnc2Nc2ccc(OCc3cccc(F)c3)c(Cl)c2)n1 ?
Reply: No

----------
- System: HCC-2998 colon
- assay-method-text: NCI tumour cell line growth inhibition, 48 h; in the data active means GI50 below about 0.43 µM; inactive means the rest
Write down one outcome, taken from active, inactive

Past entries and their recorded results:
COc1cc2c(cc1OCCCN1CCN(CCCOc3cc4c(cc3OC)C(=O)C3CCC[C@H]3C=N4)CC1)N=C[C@@H]1CCCC1C2=O (some centres undefined) : inactive
O=C1/C(=C\c2ccccc2)CN(C(=O)c2ccccc2F)C/C1=C\c1ccccc1 : inactive
CC1OC(OC2C(OC3CCC4(C)C(CCC5(C)C4CC=C4C6CC(C)(C)CCC6(CO)C(O)CC45C)C3(C)C)OC(C(=O)O)C(OC3OC(COC4OC(CO)C(O)C(O)C4O)C(O)C(O)C3O)C2O)C(O)C(O)C1O (centres undefined) : inactive
N=C(N)c1ccc(-c2ccc(-c3ccccc3)o2)cc1 : inactive
CCN1C(=O)N(CC)C2C1NN=c1s/c(=C\c3ccc([N+](=O)[O-])cc3)c(=O)n12 (centres undefined) : inactive
Nc1nccc(C#Cc2cncnc2Nc2ccc(OCc3cccc(F)c3)c(Cl)c2)n1 : inactive
COc1cc(-c2cn(-c3ccc(Cl)cc3)c(=O)n2-c2ccccc2)cc(OC)c1OC : inactive
Oc1ccc(-c2nc(-c3ccc(F)cc3)c(-c3ccncc3)[nH]2)cc1 : inactive

Ask: Would you mind telling me which call this test gave Cc1ccc2c(c1)/C(=N\N=C/c1cn(C(C)C)c3ccccc13)C(=O)N2 ?
Reply: inactive

Ask: Follow-up entry: C[CH2][Sn]([CH2]C)([O]C(=O)c1cc(OC)c(OC)c(OC)c1)[O][Sn]([CH2]C)([CH2]C)[O]C(=O)c1cc(OC)c(OC)c(OC)c1
Reply: inactive

Ask: Follow-up entry: COc1cccc(C2C3=C(COC3=O)N(CCO)c3cc4c(cc32)CCC4)c1 (centres undefined)
Reply: active

Ask: Try this compound next: COc1cc2c(c(Br)c1N)-c1cc(Br)c(N)cc1C2=O
Reply: inactive

Ask: Now consider CN(C)c1ccc(N=C(C#N)c2nc(N)nc(N3CCOCC3)n2)cc1 .
Reply: inactive

Ask: Again, but for CC[C@]12C=CCN3CC[C@]4(C(=C(C(=O)OC)C1)Nc1ccccc14)[C@@H]32
Reply: inactive
